target: indoleamine 2, 3-dioxygenase (IDO1) (Homo sapiens, UniProt P14902); test: PBMC IDO1 assay (kynurenine via mass spectrometry); assay type: cell-based
Sequence (P14902 whole entry): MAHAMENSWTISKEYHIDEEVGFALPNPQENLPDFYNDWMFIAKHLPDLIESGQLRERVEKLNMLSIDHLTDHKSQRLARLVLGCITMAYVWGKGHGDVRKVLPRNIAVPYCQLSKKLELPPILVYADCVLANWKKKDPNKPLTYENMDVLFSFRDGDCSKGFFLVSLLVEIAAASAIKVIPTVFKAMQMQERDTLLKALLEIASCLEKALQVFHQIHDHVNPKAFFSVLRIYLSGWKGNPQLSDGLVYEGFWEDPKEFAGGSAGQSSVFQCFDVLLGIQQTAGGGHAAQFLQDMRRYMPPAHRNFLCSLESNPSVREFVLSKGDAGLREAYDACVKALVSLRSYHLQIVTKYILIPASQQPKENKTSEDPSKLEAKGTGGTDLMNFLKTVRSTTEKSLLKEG
Please go through the items and note down their pIC50.
Notebook: values listed as pIC50 are -log10 of the concentration (mol/L).

For the compound COc1ncccc1OC(=O)N1CCC(C(CC(C)C)NC(=O)c2ccc(F)cc2)CC1 (stereo not drawn) , give its measured pIC50 value.
8.30

For the compound CC(C)CC(NC(=O)c1ccc(Cl)cc1)C1CCN(C(=O)Oc2cccnc2C#N)CC1 (stereo not drawn) , give its measured pIC50 value.
8.80

For the compound Cc1ncccc1OC(=O)N1CCC(C(CC(C)C)NC(=O)c2ccc(Cl)cc2)CC1 (stereo not drawn) , give its measured pIC50 value.
8.80

For the compound COc1ncccc1OC(=O)N1CCC([C@H](NC(=O)c2ccc(Cl)cc2)c2ccccc2)CC1 , give its measured pIC50 value.
8.00

For the compound CC(C)CC(NC(=O)c1ccc(Cl)cc1)C1CCN(C(=O)Oc2cccnc2C(C)C)CC1 (stereo not drawn) , give its measured pIC50 value.
8.20

For the compound CC(C)CC(NC(=O)c1ccc(F)cc1)C1CCN(C(=O)Oc2cncc(F)c2)CC1 (stereo not drawn) , give its measured pIC50 value.
8.00

For the compound COc1ncccc1OC(=O)N1CCC(C(CC(C)C)NC(=O)c2ccc(Cl)cc2)CC1 (stereo not drawn) , give its measured pIC50 value.
8.60

For the compound Cc1ncccc1OC(=O)N1CCC([C@H](NC(=O)c2ccc(Cl)cc2)c2ccccc2)CC1 , give its measured pIC50 value.
8.60

For the compound O=C(N[C@H](CCCO)C1CCN(C(=O)Oc2cccnc2F)CC1)c1ccc(F)cc1 , give its measured pIC50 value.
5.90

For the compound COCCC[C@@H](NC(=O)c1ccc(F)cc1)C1CCN(C(=O)Oc2cccnc2F)CC1 , give its measured pIC50 value.
6.80

For the compound Cc1ccnc(C)c1OC(=O)N1CCC(C(CC(C)C)NC(=O)c2ccc(Cl)cc2)CC1 (stereo not drawn) , give its measured pIC50 value.
9.00

For the compound Cc1ncccc1OC(=O)N1CCC([C@@H](CC(C)C)NC(=O)c2ccc(Cl)cc2)CC1 , give its measured pIC50 value.
8.90

For the compound Cc1ncccc1OC(=O)N1CCC(C(CC(C)C)NC(=O)c2ccc(F)cc2)CC1 (stereo not drawn) , give its measured pIC50 value.
8.50

For the compound O=C(NC(c1ccncc1)C1CCN(C(=O)Oc2cccnc2)CC1)c1ccc(F)cc1 (stereo not drawn) , give its measured pIC50 value.
6.20

For the compound O=C(NC(c1ccncc1)C1CCN(C(=O)Oc2cccnc2F)CC1)c1ccc(F)cc1 (stereo not drawn) , give its measured pIC50 value.
6.80

For the compound COc1ncccc1OC(=O)N1CCC([C@@H](CC(C)C)NC(=O)c2ccc(F)cc2)CC1 , give its measured pIC50 value.
8.90

For the compound CC(C)CC(NC(=O)c1ccc(F)cc1)C1CCN(C(=O)Oc2cccnc2F)CC1 (stereo not drawn) , give its measured pIC50 value.
8.40

For the compound O=C(N[C@H](c1ccccc1)C1CCN(C(=O)Oc2cccnc2F)CC1)c1ccc(Cl)cc1 , give its measured pIC50 value.
8.30

---

molecular target: indoleamine 2, 3-dioxygenase (IDO1) (Homo sapiens, UniProt P14902); test: PBMC IDO1 assay (kynurenine via mass spectrometry); format: cell-based; conditions: human PBMC stimulated with IFN-γ and LPS, 2 days, kynurenine by mass spectrometry; recorded as pIC50; read-out: PBMC PXC50_ (converted)
assay_endpoint: IC50 (nM)
Just the number in nM, nothing appended.

For the compound O=C(NC(C1CC1)C1CCN(C(=O)Oc2cncnc2)CC1)c1ccc(Cl)s1 (stereo in doubt) , give its measured IC50 value.
50.1

For the compound Cc1ccc(C(=O)N[C@H](C2CC2)C2CCN(C(=O)Oc3ccnc(C)c3C)CC2)s1 , give its measured IC50 value.
5.01

For the compound Cc1c(OC(=O)N2CCC(C(CC(C)C)NC(=O)c3ccc(F)cc3)CC2)ccnc1F (stereo not shown) , give its measured IC50 value.
6.31

For the compound O=C(N[C@@H](C1CC1)C1CCN(C(=O)Oc2ccccc2)CC1)c1ccc(Cl)s1 , give its measured IC50 value.
631

For the compound Cc1c(F)cccc1OC(=O)N1CCC([C@@H](CCCO)NC(=O)c2ccc(F)cc2)CC1 , give its measured IC50 value.
316

For the compound CC(C)(C)OC(=O)N1CCC(C(NC(=O)c2cccc3cc[nH]c23)c2ccccc2)CC1 (stereo not shown) , give its measured IC50 value.
631

For the compound O=C(NC(c1ccncc1)C1CCN(C(=O)Oc2ccccc2)CC1)c1ccc(F)cc1 (stereo not shown) , give its measured IC50 value.
100

For the compound O=C(NC(c1ccccc1)C1CCN(C(=O)Oc2ccccc2)CC1)c1ccccc1 (stereo not shown) , give its measured IC50 value.
10

For the compound Cc1ncnc(C)c1OC(=O)N1CCC([C@@H](NC(=O)c2ccc(Cl)s2)C2CC2)CC1 , give its measured IC50 value.
10

For the compound CC(C)C[C@H](NC(=O)c1ccc(Cl)cc1)C1CCN(C(=O)Oc2ccccc2)CC1 , give its measured IC50 value.
100

For the compound CC(C)C[C@@H](NC(=O)c1ccc(Cl)s1)C1CCN(C(=O)Oc2ccccc2)CC1 , give its measured IC50 value.
2

For the compound C[C@@H](NC(=O)c1ccc(Cl)s1)C1CCN(C(=O)Oc2ccccc2)CC1 , give its measured IC50 value.
7.94

For the compound COCCC[C@@H](NC(=O)c1ccc(F)cc1)C1CCN(C(=O)Oc2cccc(F)c2C)CC1 , give its measured IC50 value.
7.94
